Listed below: IC50 values for each entry.
tgt: FAAH (Mus musculus (Mouse), UniProt O08914)
Sequence (O08914 whole entry): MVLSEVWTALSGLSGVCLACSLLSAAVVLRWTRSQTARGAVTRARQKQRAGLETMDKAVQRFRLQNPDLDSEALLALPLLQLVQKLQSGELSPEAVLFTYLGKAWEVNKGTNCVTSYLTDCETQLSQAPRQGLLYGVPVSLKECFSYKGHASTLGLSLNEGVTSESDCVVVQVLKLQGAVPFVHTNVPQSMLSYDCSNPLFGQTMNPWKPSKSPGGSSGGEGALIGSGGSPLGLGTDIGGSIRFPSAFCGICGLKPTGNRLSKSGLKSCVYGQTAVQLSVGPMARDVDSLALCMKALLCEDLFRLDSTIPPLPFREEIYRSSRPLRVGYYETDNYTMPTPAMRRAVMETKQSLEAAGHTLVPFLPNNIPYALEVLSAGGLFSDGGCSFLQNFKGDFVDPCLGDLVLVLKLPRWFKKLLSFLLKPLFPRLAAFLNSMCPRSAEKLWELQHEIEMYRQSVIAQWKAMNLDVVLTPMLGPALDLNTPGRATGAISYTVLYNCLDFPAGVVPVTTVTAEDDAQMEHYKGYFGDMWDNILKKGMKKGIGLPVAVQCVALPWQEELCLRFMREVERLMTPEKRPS
experiment-summary: In vitro competitive activity-based protein profiling (FP-Rh), mouse FAAH
Assay type: biochemical
test-context: mouse brain membrane proteome, competitive ABPP (Table 7)

Example entries and their recorded answers appear below.
compound	tgt	IC50
Cn1nc(-c2ccccc2)cc1CN1CCN(C(=O)OC(C(F)(F)F)C(F)(F)F)CC1 [Example 10d]	FAAH (Mus musculus (Mouse), UniProt O08914)	> 10000 nM
O=C(OC(C(F)(F)F)C(F)(F)F)N1CCN(Cc2ccc(C(F)(F)F)cc2N2CCOCC2)CC1	FAAH (Mus musculus (Mouse), UniProt O08914)	> 10000 nM
O=C(OC(C(F)(F)F)C(F)(F)F)N1CCN(Cc2ccc(N3CCOCC3)cc2F)CC1	FAAH (Mus musculus (Mouse), UniProt O08914)	> 10000 nM
Cn1cc(CN2CCN(C(=O)OC(C(F)(F)F)C(F)(F)F)CC2)c(-c2ccccc2Cl)n1	FAAH (Mus musculus (Mouse), UniProt O08914)	> 10000 nM
O=C(OC(C(F)(F)F)C(F)(F)F)N1CCN(Cc2ccc(N3CCOCC3)cc2Cl)CC1	FAAH (Mus musculus (Mouse), UniProt O08914)	> 5000 nM
O=C(OC(C(F)(F)F)C(F)(F)F)N1CCN(Cc2cccc(Cl)c2C(=O)N2CCCC2)CC1	FAAH (Mus musculus (Mouse), UniProt O08914)	> 10000 nM
CN(C)C(=O)c1cc(-c2ccccc2)ccc1CN1CCN(C(=O)OC(C(F)(F)F)C(F)(F)F)CC1 [Example 11x]	FAAH (Mus musculus (Mouse), UniProt O08914)	> 10000 nM
Cc1ccc(CN2CCN(C(=O)OC(C(F)(F)F)C(F)(F)F)CC2)cc1	FAAH (Mus musculus (Mouse), UniProt O08914)	> 1250 nM

Query IC50 on FAAH (Mus musculus (Mouse), UniProt O08914) for "O=C(OC(C(F)(F)F)C(F)(F)F)N1CCN(Cc2cc(Cl)ccc2N2CCCC2)CC1" > 10000 nM
